The origin of these recorded values is ChEMBL document CHEMBL4184291.

Answer each item with its documented fraction unbound.
# assayOverview: Protein binding in human plasma
# Format: ADME, cell-free
# conditionDetails: read-out: PPB (converted)
One number for each entry.

Hey, quick one: what's fraction unbound for each of these?
1. CCc1ccc(-n2ccc(C(F)(F)F)c2COc2ccc(CCC(=O)O)c(F)c2F)cc1
2. Cc1ccc(-n2ccc(C(F)(F)F)c2COc2c(F)cc(CCC(=O)O)cc2F)cc1
3. O=C(O)CCc1cc(F)c(OCc2c(C(F)(F)F)ccn2-c2ccc(Cl)cc2)c(F)c1

[0.0002, 0.0008, 0.0008]

###

# assayOverview: Clearance in rat at 2 mg/kg, iv by LC-MS/MS analysis
# Format: ADME, organism-based
# conditionDetails: in vivo
measureName: clearance (mL/min/kg)
Give bare numbers, in mL/min/kg.

Query (molecule): "O=C(O)CCc1cc(F)c(OCc2c(C(F)(F)F)ccn2-c2ccc(Cl)cc2)c(F)c1" ; field requested: clearance 3.2

###

# assayOverview: Cmax in mouse at 14.6 mg/kg, po by LC-MS/MS analysis
# Type: ADME, organism-based
# Parameters: dose 14.6 mg/kg, route oral
# conditionDetails: in vivo
measureName: Cmax (ng/mL)
One number for each entry, in ng/mL.

# get_value(readout='Cmax', item= "O=C(O)CCc1cc(F)c(OCc2c(C(F)(F)F)ccn2-c2ccc(Cl)cc2)c(F)c1" ) 18700

###

# assayOverview: Protein binding in rat plasma
# Type: ADME, cell-free
# conditionDetails: read-out: PPB (converted)
For each record, write down the corresponding fraction unbound.
Answers are plain numbers.

Known results for compounds:
[
  {
    "smilesText": "Cc1ccc(-n2ccc(C(F)(F)F)c2COc2c(F)cc(CCC(=O)O)cc2F)cc1",
    "fraction unbound": 0.0015
  },
  {
    "smilesText": "CCc1ccc(-n2ccc(C(F)(F)F)c2COc2ccc(CCC(=O)O)c(F)c2F)cc1",
    "fraction unbound": 0.0008
  }
]

// next entry
Name the reported fraction unbound value associated with the compound "O=C(O)CCc1cc(F)c(OCc2c(C(F)(F)F)ccn2-c2ccc(Cl)cc2)c(F)c1" 0.0017

###

# assayOverview: Half life in rat at 2 mg/kg, iv by LC-MS/MS analysis
# Format: ADME, organism-based
# conditionDetails: in vivo
measureName: half-life (h)
One number for each entry, in h.

Item under review: "O=C(O)CCc1cc(F)c(OCc2c(C(F)(F)F)ccn2-c2ccc(Cl)cc2)c(F)c1" . Reported half-life? 1.64

###

# assayOverview: AUClast in rat at 10 mg/kg, po by LC-MS/MS analysis
# Format: ADME, organism-based
# Set-up: dose 10 mg/kg, time 0 - last, route oral
# conditionDetails: in vivo
measureName: AUC(0-t) (ng·h/mL)
Numbers only, in ng·h/mL.

Field request: AUC(0-t) | item: "O=C(O)CCc1cc(F)c(OCc2c(C(F)(F)F)ccn2-c2ccc(Cl)cc2)c(F)c1" 60900

###

# assayOverview: Clearance in dog at 1 mg/kg, iv by LC-MS/MS analysis
# Format: ADME, organism-based, Canis lupus familiaris
# conditionDetails: in vivo
measureName: clearance
Returns: string containing the numeric result and its unit.

// clearance lookup, key: "O=C(O)CCc1cc(F)c(OCc2c(C(F)(F)F)ccn2-c2ccc(Cl)cc2)c(F)c1" 0.147 L/h/kg
